- SYSTEM UNDER TEST: Beta-secretase 1 (Homo sapiens, UniProt P56817)
- Sequence (P56817 whole entry): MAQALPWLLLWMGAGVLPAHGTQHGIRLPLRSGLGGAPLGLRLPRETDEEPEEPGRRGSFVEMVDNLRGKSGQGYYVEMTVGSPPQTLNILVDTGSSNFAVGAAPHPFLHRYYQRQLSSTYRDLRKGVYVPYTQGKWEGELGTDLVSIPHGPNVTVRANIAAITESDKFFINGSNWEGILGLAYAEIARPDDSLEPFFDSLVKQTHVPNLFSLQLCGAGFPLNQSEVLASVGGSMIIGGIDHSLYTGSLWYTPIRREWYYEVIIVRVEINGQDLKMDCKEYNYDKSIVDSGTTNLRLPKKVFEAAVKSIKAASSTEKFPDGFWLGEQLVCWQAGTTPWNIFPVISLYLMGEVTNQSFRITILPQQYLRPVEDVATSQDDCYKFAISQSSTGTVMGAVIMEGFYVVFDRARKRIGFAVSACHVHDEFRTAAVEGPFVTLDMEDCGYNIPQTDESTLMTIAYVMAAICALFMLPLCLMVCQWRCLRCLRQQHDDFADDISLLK
- ASSAY OVERVIEW: Inhibition of recombinant BACE1 (unknown origin) using H-Ile-Lys-Thr-Glu-Glu-Ile-Ser-Glu-Val-Asn-Leu-Asp-Ala-Glu-Phe-Arg-His-Asp-Ser-Gly-NH2 as substrate measured after 90 mins by HPLC analysis
EXPERIMENTAL READOUT: pIC50
# log scale: pIC50 equals minus log10 of the concentration in mol/L

Result for C[C@H]1OC[C@]2(c3cc(NC(=O)c4cnc(C(F)F)cn4)ccc3F)N=C(N)SC[C@H]12 , tested on Beta-secretase 1 (Homo sapiens, UniProt P56817), pIC50: 7.24

Cited source: ChEMBL document CHEMBL6114974
